# tgt: D2 (Homo sapiens, UniProt P14416)
# Sequence (P14416 1-414 isoform P14416-2): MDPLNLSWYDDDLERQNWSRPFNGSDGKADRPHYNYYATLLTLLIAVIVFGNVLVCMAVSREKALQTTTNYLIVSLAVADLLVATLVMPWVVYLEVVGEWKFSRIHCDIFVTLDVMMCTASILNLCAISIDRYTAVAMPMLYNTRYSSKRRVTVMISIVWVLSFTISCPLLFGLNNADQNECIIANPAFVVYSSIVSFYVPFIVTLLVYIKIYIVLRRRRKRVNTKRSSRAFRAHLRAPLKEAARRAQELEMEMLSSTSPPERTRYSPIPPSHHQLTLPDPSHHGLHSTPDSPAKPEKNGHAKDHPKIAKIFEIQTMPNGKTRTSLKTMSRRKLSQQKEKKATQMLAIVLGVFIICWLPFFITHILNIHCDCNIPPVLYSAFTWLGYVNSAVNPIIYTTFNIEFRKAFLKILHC
# assay-summary: Receptor binding, D2
# measurement-parameters: @ 100 nM; read-out: maximum inhibition
Could you label it yes if measured inhibition at 0.1 µM is 10% or higher, and no otherwise?

[[record]]
structure_string = "CC(C)N1C(=O)CN2c3c(cccc31)[C@@H]1CN(CCCOc3ccc(F)cc3)CC[C@@H]12"
assigned_category = "yes"

[[record]]
structure_string = "O=C1CN2c3c(cccc3[C@@H]3CN(CCCOc4ccc(I)cc4)CC[C@@H]32)N1"
assigned_category = "yes"

[[record]]
structure_string = "O=C1CN2c3c(cccc3[C@@H]3CN(CCCOc4ccccc4F)CC[C@@H]32)N1"
assigned_category = "yes"

[[record]]
structure_string = "Cc1ccc(OCCCN2CC[C@H]3[C@@H](C2)c2cccc4c2N3CC(=O)N4)cc1"
assigned_category = "yes"

[[record]]
structure_string = "O=C1CN2c3c(cccc3[C@@H]3CN(CCCOc4ccc(Br)cc4)CC[C@@H]32)N1"
assigned_category = "no"

[[record]]
structure_string = "O=C1CN2c3c(cccc3[C@@H]3CN(CCCOc4cccc(F)c4)CC[C@@H]32)N1"
assigned_category = "yes"

